target: Rap guanine nucleotide exchange factor 4 (Homo sapiens) (UniProt Q8WZA2); experiment: Validation qHTS for antagonist of cAMP-regulated guanine nucleotide exchange factor 4 (EPAC2); details: EPAC2 Rap1B BODIPY-GDP exchange, fluorescence; series mostly up to 112 µM; also: nearly all actives have a fitted effect of over 40% in size
Sequence (Q8WZA2 whole entry, looked up): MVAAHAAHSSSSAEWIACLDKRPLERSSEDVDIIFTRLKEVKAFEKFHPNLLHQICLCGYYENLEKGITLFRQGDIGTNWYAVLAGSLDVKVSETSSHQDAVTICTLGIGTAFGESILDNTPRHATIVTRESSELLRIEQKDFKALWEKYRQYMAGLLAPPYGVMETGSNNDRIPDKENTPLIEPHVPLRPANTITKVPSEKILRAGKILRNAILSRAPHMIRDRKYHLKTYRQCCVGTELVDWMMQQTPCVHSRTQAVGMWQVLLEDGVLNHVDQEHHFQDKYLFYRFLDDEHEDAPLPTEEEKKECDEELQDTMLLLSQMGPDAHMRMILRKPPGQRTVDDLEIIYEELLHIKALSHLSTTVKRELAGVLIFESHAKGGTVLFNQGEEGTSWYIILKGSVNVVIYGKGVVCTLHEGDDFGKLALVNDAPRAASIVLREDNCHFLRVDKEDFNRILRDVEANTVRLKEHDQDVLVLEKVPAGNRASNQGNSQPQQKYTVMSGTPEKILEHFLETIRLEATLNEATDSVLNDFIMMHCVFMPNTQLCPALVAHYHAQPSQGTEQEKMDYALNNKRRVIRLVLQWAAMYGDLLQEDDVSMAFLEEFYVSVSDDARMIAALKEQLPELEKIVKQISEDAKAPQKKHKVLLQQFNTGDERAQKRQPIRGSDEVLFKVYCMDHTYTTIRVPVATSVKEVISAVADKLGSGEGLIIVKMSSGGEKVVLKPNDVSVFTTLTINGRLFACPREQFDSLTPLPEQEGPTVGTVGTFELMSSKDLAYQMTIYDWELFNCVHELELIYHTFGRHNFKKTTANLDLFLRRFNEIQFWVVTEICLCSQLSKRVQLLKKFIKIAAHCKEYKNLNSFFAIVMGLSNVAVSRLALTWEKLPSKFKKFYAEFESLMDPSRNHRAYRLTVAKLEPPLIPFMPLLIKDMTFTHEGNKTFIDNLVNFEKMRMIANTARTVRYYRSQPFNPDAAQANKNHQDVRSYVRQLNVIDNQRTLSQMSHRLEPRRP
Out of some 16,000 compounds screened, about 260 (1.6%) were called active. Not shown: some 14% with an inconclusive outcome. Calls follow the shape of the dose curve; as a rule, active = well fitted inhibition curve with a large enough effect; inconclusive = small, poorly fitted or top-dose-only effect; inactive = no such curve, though single readings can be large or run the other way. Shown is part of a subset that was picked to be rich in actives.
Use one of these outcomes when replying: YES (active), NO (inactive)

Solved entries (count: 5):
[[record]]
compound = "COc1ccccc1CNc1ccnc(-c2c(C)noc2C)n1"
label_class = "NO"

[[record]]
compound = "Cc1cccc(CNc2cc(-c3ccccc3Cl)ncn2)c1"
label_class = "NO"

[[record]]
compound = "CC[N+](C)(CC)CCC[n+]1c(-c2ccccc2)c2cc(N)ccc2c2ccc(N)cc21"
label_class = "YES"

[[record]]
compound = "CN(C)C(=O)c1ccc(-c2cncnc2NC2CCNCC2)cc1"
label_class = "NO"

[[record]]
compound = "Nc1nc2c(nc(Cl)n2C2OC(CO)C(O)C2O)c(=O)[nH]1 (centres undefined)"
label_class = "NO"


Input: // param item: `COC(=O)N1CCC2(CCCN(c3ccncc3)C2)CC1` ; yields the recorded call
Output: NO

Input: Please share the test call associated with CCc1noc(C)c1C(=O)NCCN1Cc2cc(OC)ccc2OC(CC)C1 (centres undefined) .
Output: NO

Input: Which outcome was assigned to `COCCNc1ncnc2ccc(-c3ccccc3CN(C)C)cc12` in this test?
Output: NO

Input: Short answer needed: outcome of this test for `O=S(O)CNc1ccc(S(=O)(=O)c2ccc(NCS(=O)O)cc2)cc1` ?
Output: NO

Input: What did this assay record as the result for `c1cncc(-c2nc(N3CCNCC3)c3ccccc3n2)c1` ?
Output: NO

Input: Any idea what this test logged for `COc1cccc(Nc2ncc3ncc(=O)n(C4CC4)c3n2)c1` ?
Output: NO

Input: Recorded test outcome, item `Cc1oc(-c2cccc(NC(=O)c3ccccc3)c2)nc1CNC(=O)c1cnc2ccccn2c1=O`
Output: NO

====

molecular target: Rap guanine nucleotide exchange factor 4 (Homo sapiens); test: Validation qHTS for antagonist of cAMP-regulated guanine nucleotide exchange factor 4 (EPAC2); settings: EPAC2 Rap1B BODIPY-GDP exchange, fluorescence; series mostly up to 112 µM; also: nearly all actives have a fitted effect of over 40% in size
Hit rate of the full screen: of about 16,000 compounds, about 260 (1.6%) were called active. Another 14% or so got no clear call; they are omitted. Calls follow the shape of the dose curve; as a rule, active = well fitted inhibition curve with a large enough effect; inconclusive = small, poorly fitted or top-dose-only effect; inactive = no such curve, though single readings can be large or run the other way. Many of the other results were omitted from the sample, so actives are more common in it than they were.
Valid outcomes are listed here; reply with one: active, inactive

Solved cases below.
[[record]]
molecule = "COc1ccc(CN2[C@@H](CC(=O)O)c3cc(F)ccc3S2(=O)=O)cc1"
label_class = "inactive"

[[record]]
molecule = "COc1ccccc1C(=O)N[C@@H]1c2ccccc2C2(CCN(C(=O)c3csnn3)CC2)[C@H]1OC"
label_class = "inactive"

[[record]]
molecule = "COc1ncc2nc(-c3ccc(Cl)cc3)c(=O)n(-c3ccccc3)c2n1"
label_class = "inactive"

[[record]]
molecule = "COc1ccc(NC(=O)N2CC3(CCN(C(=O)c4cccn4C)CC3)C2)cc1"
label_class = "inactive"

[[record]]
molecule = "CC(C)N1C[C@@H](NCc2ccccc2O)C[C@H]1C(=O)N1CCN(c2cccc(C(F)(F)F)c2)CC1"
label_class = "inactive"


Input: Name the outcome recorded for `Cn1c(=O)c(-c2ccccc2)nc2cnc(N3CCNCC3)nc21` in the assay.
Output: inactive

Input: Kindly provide the recorded test outcome for the following molecule: `CS(=O)(=O)NC(=O)CCC/C=C\C[C@H]1C(=O)C[C@@H](O)[C@@H]1/C=C/[C@H](O)COc1ccccc1`
Output: inactive

Input: How did this test come out for `CC(=O)O[C@]1(C(C)=O)CC[C@H]2[C@@H]3C=C(C)C4=CC(=O)CC[C@]4(C)[C@H]3CC[C@@]21C` ?
Output: inactive

Input: Outcome? `Cc1ccc(CN2CCCOCCS2(=O)=O)cc1`
Output: inactive

Input: Hello, I am checking results. What call was entered for `Cc1cccc(CNc2ccnc(-c3cccnc3)n2)c1` ?
Output: inactive

Input: Called result for `COCCn1c(=O)c(-c2cc(F)cc(F)c2)nc2cnc(N3CCNCC3)nc21`
Output: inactive
